# Test system: Escherichia coli TOP10;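 note: peptides expressed intracellularly from a pBAD plasmid library in pooled LB shake-flask culture, induced with 0.3% L-arabinose, DNA abundance read by NGS, three biological replicates, DESeq2 with apeglm shrinkage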
# ASSAY: shrunken log2 fold change of peptide-encoding DNA abundance (4.5 h post-induction vs induction); higher = less antimicrobial activity (less host growth inhibition)
# PARTICULARS: time post-induction: 4.5 h; library: site-saturation at positions 5, 18, 19, 20
Record form. Attribute: shrunken log2 fold change. Fill in for each entry.
Give your answer as a number; write no unit.

Quick check: shrunken log2 fold change of RRIRVRPPRLPRPRPRPVENPRP ?
0.02

Record: RRIRARPPRLPRPRPRPHTHPRP
-0.175

Record: RRIRIRPPRLPRPRPRPADYPRP
-0.635

Record: RRIRYRPPRLPRPRPRPKWLPRP
-0.221

Record: RRIRERPPRLPRPRPRPIQEPRP
-0.0167

Record: RRIRNRPPRLPRPRPRPTMDPRP
-0.266

Record: RRIRQRPPRLPRPRPRPRNEPRP
-0.199

Record: RRIRRRPPRLPRPRPRPLPRPRP
0.748

Record: RRIRYRPPRLPRPRPRPAEYPRP
-0.58

Record: RRIRFRPPRLPRPRPRPDKYPRP
-1.65

Record: RRIRRRPPRLPRPRPRPFDFPRP
-0.146

Record: RRIRWRPPRLPRPRPRPVSLPRP
0.15

Record: RRIRVRPPRLPRPRPRPPWEPRP
0.252

Record: RRIRARPPRLPRPRPRPFQTPRP
-0.0176

Record: RRIRMRPPRLPRPRPRPYWFPRP
-0.131

Record: RRIRNRPPRLPRPRPRPESPPRP
0.0142

Record: RRIRRRPPRLPRPRPRPIWFPRP
0.0342

Record: RRIRLRPPRLPRPRPRPTCKPRP
-0.0465

Record: RRIRNRPPRLPRPRPRPEWFPRP
-0.00884

Record: RRIRSRPPRLPRPRPRPHMAPRP
-0.361

Record: RRIRVRPPRLPRPRPRPERRPRP
0.13

Record: RRIRERPPRLPRPRPRPFKEPRP
-0.346

Record: RRIRCRPPRLPRPRPRPCSLPRP
-0.477

Record: RRIRWRPPRLPRPRPRPIINPRP
-0.609

Record: RRIRNRPPRLPRPRPRPTQTPRP
-0.0444

Record: RRIRLRPPRLPRPRPRPSNKPRP
-0.646

Record: RRIRMRPPRLPRPRPRPTCKPRP
2.25

Record: RRIRYRPPRLPRPRPRPRLPPRP
-0.0393

Record: RRIRQRPPRLPRPRPRPVYTPRP
-0.143

Record: RRIRCRPPRLPRPRPRPFNMPRP
-0.052

Record: RRIRMRPPRLPRPRPRPRIEPRP
-0.0903

Record: RRIRIRPPRLPRPRPRPWEAPRP
0.0112

Record: RRIRMRPPRLPRPRPRPICGPRP
0.237

Record: RRIRQRPPRLPRPRPRPDEIPRP
-0.00251

Record: RRIRCRPPRLPRPRPRPELEPRP
0.285

Record: RRIRQRPPRLPRPRPRPEHQPRP
-0.0955

Record: RRIRMRPPRLPRPRPRPEFCPRP
1.18

Record: RRIRQRPPRLPRPRPRPEEFPRP
-0.0679

Record: RRIRLRPPRLPRPRPRPGNLPRP
-0.137

Record: RRIRLRPPRLPRPRPRPWMAPRP
-0.346

Record: RRIRPRPPRLPRPRPRPDPNPRP
-0.133

Record: RRIRLRPPRLPRPRPRPKWFPRP
0.154

Record: RRIRTRPPRLPRPRPRPLHEPRP
-0.191

Record: RRIRCRPPRLPRPRPRPLYCPRP
-0.593

Record: RRIRLRPPRLPRPRPRPMCVPRP
-0.231

Record: RRIRHRPPRLPRPRPRPKARPRP
-0.00317

Record: RRIRHRPPRLPRPRPRPYGPPRP
-0.311

Record: RRIRMRPPRLPRPRPRPCPSPRP
0.0607

Record: RRIRPRPPRLPRPRPRPDFHPRP
-0.26

Record: RRIRPRPPRLPRPRPRPNYGPRP
0.111

Record: RRIRNRPPRLPRPRPRPWCQPRP
-0.0618

Record: RRIRSRPPRLPRPRPRPSKWPRP
-0.285

Record: RRIRRRPPRLPRPRPRPFHCPRP
0.089

Record: RRIRNRPPRLPRPRPRPEPQPRP
1

The origin of these recorded values is the supplement of paper PMC9112550.
